# MEASUREMENT TARGET: NanoLuc-hACKR3 (Homo sapiens)
# Construct: membrane preparation)
# Sequence (P25106 whole entry): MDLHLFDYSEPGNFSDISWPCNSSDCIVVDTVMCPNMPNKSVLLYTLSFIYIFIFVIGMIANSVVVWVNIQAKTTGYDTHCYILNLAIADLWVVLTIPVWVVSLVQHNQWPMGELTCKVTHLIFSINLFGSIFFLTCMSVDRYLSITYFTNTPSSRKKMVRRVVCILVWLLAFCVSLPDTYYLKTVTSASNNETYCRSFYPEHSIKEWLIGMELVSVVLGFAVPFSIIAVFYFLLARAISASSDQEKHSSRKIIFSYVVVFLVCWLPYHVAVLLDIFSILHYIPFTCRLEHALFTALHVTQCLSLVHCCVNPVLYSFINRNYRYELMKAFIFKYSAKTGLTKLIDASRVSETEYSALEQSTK
# ASSAY: NanoBRET binding study (displacement of fluorescently labelled CXCL12)
# SETUP CONDITIONS: displacement of 0.3 nM CXCL12-AF647; membranes of HEK293T cells expressing NanoLuc-ACKR3; 1 hour incubation; read-out: Affinity

- COMPOUND: "O=C(NCC1CCN(Cc2ccccn2)CC1)c1cc(-c2ccc(F)cc2F)on1 [Molecule 28]"
  Ki: "100 to 1000 nM"
- COMPOUND: "O=C(NCC1CCN(Cc2ccc(O)cc2)CC1)c1cc(-c2ccc(F)cc2F)on1 [Molecule 50]"
  Ki: "≤ 100 nM"
- COMPOUND: "CN(C)C(=O)c1cccc(CN2CCC(CNC(=O)c3cc(-c4ccc(F)cc4F)on3)CC2)c1 [Molecule 31]"
  Ki: "1000 to 10000 nM"
- COMPOUND: "O=C(NCC1CCN(C/C=C/c2ccccc2)CC1)c1cn(-c2ccc(F)cc2F)nn1 [Molecule 61]"
  Ki: "≤ 100 nM"
- COMPOUND: "COc1ccc(CN2CCC(CNC(=O)c3cc(-c4ccc(F)cc4F)on3)CC2)cc1OC [Molecule 46]"
  Ki: "≤ 100 nM"
- COMPOUND: "O=C(NCC1CCN(C(=O)C2CC2)CC1)c1cc(-c2ccc(F)cc2F)on1 [Molecule 7]"
  Ki: "> 10000 nM"
- COMPOUND: "O=C(NCC1CCN(CCCCc2ccccc2)CC1)c1cc(-c2ccc(F)cc2F)on1 [Molecule 45]"
  Ki: "≤ 100 nM"
- COMPOUND: "O=C(NCC1CCN(Cc2ccc([N+](=O)[O-])cc2)CC1)c1cc(-c2ccc(F)cc2F)on1 [Molecule 43]"
  Ki: "> 10000 nM"
- COMPOUND: "N#Cc1ccc(CN2CCC(CNC(=O)c3cc(-c4ccc(F)cc4F)on3)CC2)cc1 [Molecule 35]"
  Ki: "> 10000 nM"
- COMPOUND: "O=C(NCC1CCN(Cc2ccc(F)cc2)CC1)c1cc(-c2ccc(F)cc2F)on1 [Molecule 52]"
  Ki: "100 to 1000 nM"
- COMPOUND: "CC(=O)Nc1ccc(CN2CCC(CNC(=O)c3cc(-c4ccc(F)cc4F)on3)CC2)cc1 [Molecule 39]"
  Ki: "≤ 100 nM"
- COMPOUND: "O=C(NCC1CCN(Cc2ccc(Cl)cc2)CC1)c1cc(-c2ccc(F)cc2F)on1 [Molecule 34]"
  Ki: "≤ 100 nM"
- COMPOUND: "O=C(NCC1CCN(Cc2ccncc2)CC1)c1cc(-c2ccc(F)cc2F)on1 [Molecule 30]"
  Ki: "1000 to 10000 nM"
- COMPOUND: "O=C(NCC1CCN(C(=O)c2cnc3ccccc3n2)CC1)c1cc(-c2ccc(F)cc2F)on1 [Molecule 12]"
  Ki: "1000 to 10000 nM"
- COMPOUND: "O=C(NCC1CCN(C/C=C/c2ccccc2)CC1)c1nc(-c2ccc(F)cc2F)c[nH]1 [Molecule 77]"
  Ki: "1000 to 10000 nM"
- COMPOUND: "O=C(NCC1CCN(C/C=C/c2ccccc2)CC1)c1cnn(-c2ccc(F)cc2F)c1 [Molecule 64]"
  Ki: "100 to 1000 nM"
- COMPOUND: "O=C(NCC1CCN(C/C=C/c2ccccc2)CC1)c1nc(-c2ccc(F)cc2F)cs1 [Molecule 80]"
  Ki: "1000 to 10000 nM"

Source of measurements: patent US20250170117A1
